Test: Rat pharmacokinetics in plasma, non compartmental analysis
Format: in vivo, male rats
Settings: rat, in vivo; IV (2mg/Kg), male rats, plasma, mean; read-out: Tmax (converted)
measuredAttribute: Tmax
Units required after the number.

# Tmax (compound: C[S+]([O-])CC1CN(/N=C/c2ccc([N+](=O)[O-])o2)C(=O)O1 (racemic) [Nifuratel sulfoxide, nifuratel sulfoxide] ) is 2 min

---

Assay: Rat pharmacokinetics in plasma, non compartmental analysis
Type: in vivo, male rats
Conditions: rat, in vivo; IV (2mg/Kg), male rats, plasma, mean
measuredAttribute: MRT (min)
Response body: numeric value in min, unit text excluded.

Reported MRT of C[S+]([O-])CC1CN(/N=C/c2ccc([N+](=O)[O-])o2)C(=O)O1 (racemic) [Nifuratel sulfoxide, nifuratel sulfoxide] : 17.7
